biological target: human TLR7 (Homo sapiens, UniProt Q9NYK1); assay: TLR7 inhibition reporter assay (HEK-Blue cells, SEAP reporter, gardiquimod stimulation); conditions: HEK-Blue cells overexpressing human TLR7, SEAP reporter, gardiquimod 7.5 μM
measured-property: IC50

May I ask what IC50 has been recorded for Cc1nc2cc(-c3[nH]c4ccc(C5CCN(C6COC6)CC5)cc4c3C(C)C)cc(C)c2o1 ? 100 to 1000 nM

Cool, now CNC(=O)CN1CCC(c2ccc3[nH]c(-c4cc(CC(C)C)n5nc(C)cc5c4)c(C(C)C)c3c2)CC1 > 3130 nM

Repeat for the following molecule: CNC(=O)CN1CCC(c2ccc3[nH]c(-c4ccn5cnnc5c4)c(C(C)C)c3c2)CC1 100 to 1000 nM

Consider now this further molecule.
Which IC50 value belongs to COc1cc(-c2[nH]c3ccc(C4CCN(C5CCOCC5)CC4)cc3c2C(C)C)cn2ccnc12 ? < 100 nM

----------
Target: human TLR9 (Homo sapiens, UniProt Q9NR96)
Sequence (Q9NR96 26-1032): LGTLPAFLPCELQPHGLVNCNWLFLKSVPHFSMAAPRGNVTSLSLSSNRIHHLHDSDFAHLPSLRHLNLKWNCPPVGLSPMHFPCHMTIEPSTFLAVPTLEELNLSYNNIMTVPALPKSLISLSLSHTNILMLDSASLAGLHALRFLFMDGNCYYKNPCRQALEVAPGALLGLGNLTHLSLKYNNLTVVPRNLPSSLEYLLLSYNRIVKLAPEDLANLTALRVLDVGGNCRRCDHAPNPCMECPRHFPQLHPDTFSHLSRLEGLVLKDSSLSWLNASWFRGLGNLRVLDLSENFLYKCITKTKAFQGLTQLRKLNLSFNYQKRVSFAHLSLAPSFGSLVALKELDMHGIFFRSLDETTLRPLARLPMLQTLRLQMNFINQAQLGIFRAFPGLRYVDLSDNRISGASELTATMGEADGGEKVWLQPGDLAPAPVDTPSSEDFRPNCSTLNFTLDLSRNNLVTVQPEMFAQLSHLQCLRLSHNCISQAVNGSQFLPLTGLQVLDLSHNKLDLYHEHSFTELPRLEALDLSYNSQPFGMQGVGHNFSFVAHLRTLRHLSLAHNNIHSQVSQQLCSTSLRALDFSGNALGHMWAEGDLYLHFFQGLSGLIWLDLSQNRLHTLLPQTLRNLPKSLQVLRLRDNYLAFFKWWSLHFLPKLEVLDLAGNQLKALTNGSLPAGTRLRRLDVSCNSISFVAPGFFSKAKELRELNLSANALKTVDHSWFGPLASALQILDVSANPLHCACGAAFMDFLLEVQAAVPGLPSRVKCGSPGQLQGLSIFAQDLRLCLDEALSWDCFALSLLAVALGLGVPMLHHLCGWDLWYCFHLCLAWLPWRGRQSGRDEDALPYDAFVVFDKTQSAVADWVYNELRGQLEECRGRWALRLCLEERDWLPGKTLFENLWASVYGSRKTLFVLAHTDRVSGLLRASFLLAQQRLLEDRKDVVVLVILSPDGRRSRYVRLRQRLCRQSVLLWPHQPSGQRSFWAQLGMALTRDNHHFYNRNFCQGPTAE
Assay: TLR9 inhibition reporter assay (HEK-Blue cells, SEAP reporter, ODN2006 stimulation)
Settings: HEK-Blue cells overexpressing human TLR9, SEAP reporter, ODN2006 5 nM
measured-property: IC50

The examples below pair each entry with its known result.
Entry Cc1nc2c(-c3[nH]c4ccc(C5CCNCC5)cc4c3C(C)C)cccn2n1 [Example 153] : reported IC50 = ? 1 to 50 µM

Now consider CNC(=O)CN1CCC(c2ccc3[nH]c(-c4cc(C)n5nc(C)cc5c4)c(C(C)C)c3c2)CC1 [Example 419] . 1 to 50 µM

Okay, and Cc1cn2cc(-c3[nH]c4ccc(C5CCN(C(=O)CC(C)(C)O)CC5)cc4c3C(C)C)c(C)cc2n1 [Example 597] ? 1 to 50 µM

Further cases:
Which IC50 is reported for this compound? CCc1c(-c2ccnc3[nH]ncc23)[nH]c2ccc(C3CCN(C(=O)C4CCNCC4)CC3)cc12 [Example 647] 1 to 50 µM

Input CC(C)c1c(-c2cnc3nccn3c2)[nH]c2ccc(C3CCN(CC(=O)N(C)C)CC3)cc12 [Example 363] 0.1 to 1 µM

// query: OCc1c(-c2ccnc3[nH]ncc23)[nH]c2ccc(C3CCNCC3)cc12 [Example 176] 1 to 50 µM

Also, Cc1c(-c2[nH]c3ccc(C4CCN(CC(=O)N(C)C)CC4)cc3c2C(C)C)c2cccnc2n1C [Example 286] please. 1 to 50 µM

What do we get for Cc1cn2cc(-c3[nH]c4ccc(C5CCN(CC(=O)N(C)C)CC5)cc4c3C(C)C)c(C)cc2n1 [Example 375] ? < 0.1 µM

Thanks! And CNC(=O)CN1CCC(c2ccc3[nH]c(-c4ccnc5[nH]ncc45)c(C(C)C)c3c2)CC1 [Example 276] ? 1 to 50 µM

----------
molecular target: UniProt:Q9NR97; experiment: TLR8 inhibition reporter assay (HEK-Blue cells, SEAP reporter, R848 stimulation); settings: HEK-Blue cells overexpressing human TLR8, SEAP reporter, R848 15.9 μM
Sequence (Q9NR97 27-1041): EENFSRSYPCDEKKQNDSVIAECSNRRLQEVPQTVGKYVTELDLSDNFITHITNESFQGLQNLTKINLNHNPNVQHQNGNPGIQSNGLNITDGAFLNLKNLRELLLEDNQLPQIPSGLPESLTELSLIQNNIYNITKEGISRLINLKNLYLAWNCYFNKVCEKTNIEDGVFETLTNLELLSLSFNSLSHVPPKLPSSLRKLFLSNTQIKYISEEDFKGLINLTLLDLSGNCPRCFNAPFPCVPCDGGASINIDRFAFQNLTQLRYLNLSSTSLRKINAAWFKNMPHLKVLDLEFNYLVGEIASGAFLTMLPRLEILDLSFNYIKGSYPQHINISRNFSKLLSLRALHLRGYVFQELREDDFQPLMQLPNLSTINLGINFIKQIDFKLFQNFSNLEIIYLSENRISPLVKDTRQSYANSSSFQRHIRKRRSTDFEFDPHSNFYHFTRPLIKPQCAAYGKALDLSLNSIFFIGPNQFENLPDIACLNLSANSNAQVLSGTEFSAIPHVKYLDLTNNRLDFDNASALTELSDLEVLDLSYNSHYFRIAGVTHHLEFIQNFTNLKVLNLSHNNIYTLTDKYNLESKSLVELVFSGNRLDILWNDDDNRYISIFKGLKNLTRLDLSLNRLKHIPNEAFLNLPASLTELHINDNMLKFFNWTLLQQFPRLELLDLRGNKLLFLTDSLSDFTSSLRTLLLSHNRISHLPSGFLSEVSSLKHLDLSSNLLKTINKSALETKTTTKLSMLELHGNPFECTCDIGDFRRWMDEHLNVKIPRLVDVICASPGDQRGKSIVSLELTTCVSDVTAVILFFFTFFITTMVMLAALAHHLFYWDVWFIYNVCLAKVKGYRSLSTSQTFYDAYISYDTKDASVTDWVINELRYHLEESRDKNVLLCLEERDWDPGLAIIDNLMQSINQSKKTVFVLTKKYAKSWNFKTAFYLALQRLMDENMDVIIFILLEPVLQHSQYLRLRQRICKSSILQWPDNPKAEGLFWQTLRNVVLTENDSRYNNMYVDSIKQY
measured-property: IC50

Worked set:
Recorded IC50 for CC(C)c1c(-c2cnc3ncnn3c2)[nH]c2ccc(C3CCN(C4COC4)CC3)cc12 [Example 721] , please? 100 to 1000 nM

Please answer likewise for CCc1ncc(CN2CCC(c3ccc4[nH]c(-c5ccnc6[nH]ncc56)c(CC)c4c3)CC2)[nH]1 [Example 915] < 100 nM

Let us now turn to Cc1cc(-c2[nH]c3ccc(C4CCNCC4)cc3c2C(C)C)c2[nH]ncc2n1 [Example 49] < 100 nM

The record that follows has no IC50 shown yet.
I have this molecule here, CCc1c(-c2ccnc3[nH]ncc23)[nH]c2ccc(C3CCN(Cc4cscn4)CC3)cc12 [Example 927] , and I need its recorded IC50. < 100 nM

----------
biological target: human TLR7 (Homo sapiens, UniProt Q9NYK1); test: TLR7 inhibition reporter assay (HEK-Blue cells, SEAP reporter, gardiquimod stimulation); conditions: HEK-Blue cells overexpressing human TLR7, SEAP reporter, gardiquimod 7.5 μM
Measured IC50 values are reported for all entries that follow.

Answered cases to consult:
Reported IC50 for CC(C)c1c(-c2ccn3nccc3n2)[nH]c2ccc(C3CCN(CC(=O)N(C)C)CC3)cc12 [Example 425] : what is it? 100 to 1000 nM

One more molecule: CCc1c(C)c(-c2[nH]c3ccc(C4CCN(CC(C)(C)O)CC4)cc3c2C(C)C)cn2ccnc12 [Example 777] < 100 nM

// same read-out, input: CCN(CC)C(=O)C1CCCN(CC(=O)N2CCC(c3ccc4[nH]c(-c5ccnc6[nH]ccc56)c(C(C)C)c4c3)CC2)C1 (stereo not shown) [Example 568] < 100 nM

New cases:
// lookup IC50 for Cc1nc2ccc(-c3[nH]c4ccc(C5CCNCC5)cc4c3C(C)C)cc2o1 [Example 6] < 100 nM

----------
Molecular target: human TLR7 (Homo sapiens)
Sequence (Q9NYK1 27-1049): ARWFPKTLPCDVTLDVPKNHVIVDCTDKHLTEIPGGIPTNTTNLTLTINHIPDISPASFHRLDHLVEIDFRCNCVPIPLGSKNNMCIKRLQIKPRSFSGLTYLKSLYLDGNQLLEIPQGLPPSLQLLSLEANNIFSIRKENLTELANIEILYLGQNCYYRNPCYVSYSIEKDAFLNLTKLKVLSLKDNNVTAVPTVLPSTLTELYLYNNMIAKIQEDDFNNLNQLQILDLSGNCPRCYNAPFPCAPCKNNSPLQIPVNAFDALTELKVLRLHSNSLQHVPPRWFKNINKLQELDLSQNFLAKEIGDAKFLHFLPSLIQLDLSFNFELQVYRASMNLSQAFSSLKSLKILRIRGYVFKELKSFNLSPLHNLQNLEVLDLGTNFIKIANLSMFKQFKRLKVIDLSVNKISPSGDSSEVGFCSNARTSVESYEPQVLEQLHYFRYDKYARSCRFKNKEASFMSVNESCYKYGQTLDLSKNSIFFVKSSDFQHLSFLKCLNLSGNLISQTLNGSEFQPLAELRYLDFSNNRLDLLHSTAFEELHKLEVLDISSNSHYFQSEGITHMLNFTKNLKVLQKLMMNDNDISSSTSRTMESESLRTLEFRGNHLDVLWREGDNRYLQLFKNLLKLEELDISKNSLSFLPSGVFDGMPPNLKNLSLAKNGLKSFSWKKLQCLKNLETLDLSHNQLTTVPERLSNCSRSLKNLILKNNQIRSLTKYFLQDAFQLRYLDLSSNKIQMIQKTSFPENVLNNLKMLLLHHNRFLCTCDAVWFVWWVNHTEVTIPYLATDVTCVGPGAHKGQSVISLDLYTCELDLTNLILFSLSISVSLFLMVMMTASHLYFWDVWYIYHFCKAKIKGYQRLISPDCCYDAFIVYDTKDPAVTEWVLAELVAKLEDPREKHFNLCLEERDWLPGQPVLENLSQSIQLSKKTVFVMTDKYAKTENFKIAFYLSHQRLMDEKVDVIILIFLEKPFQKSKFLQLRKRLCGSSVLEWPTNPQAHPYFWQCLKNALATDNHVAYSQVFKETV
Assay: TLR7 inhibition reporter assay (HEK-Blue cells, SEAP reporter, gardiquimod stimulation)
Details: HEK-Blue cells overexpressing human TLR7, SEAP reporter, gardiquimod 7.5 μM
Excerpt: TLR7/8/9 Inhibition Reporter Assays HEK-Blue™-cells (Invivogen) overexpressing human TLR7, TLR8 or TLR9 receptors were used for screening inhibitors of these receptors using an inducible SEAP (secreted embryonic alkaline phosphatase) reporter gene under the control of the IFN-β minimal promoter fused to five NF-κB and AP-1-binding sites. […]
pIC50: −log10 of the molar value.
measured-property: pIC50

# count of solved cases: 3
Dear colleague, I am looking for the recorded pIC50 of the following compound: Cc1cc2cc(-c3[nH]c4ccc(C5CCN(CC(=O)N(C)C)CC5)cc4c3C(C)C)cc(CC(C)C)n2n1 < 5.51

Could you do the same for CC(C)c1c(-c2cc(C(C)(C)O)c3nccn3c2)[nH]c2ccc(C3CCN(C(=O)CN(C)C)CC3)cc12 , please? > 7.00

Queued: Cc1cc(-c2[nH]c3ccc(C4CCN(CC(=O)N(C)C)CC4)cc3c2C(C)C)c2ccccc2n1 > 7.00

Continuing:
So what's the measured pIC50 for this one? CC(C)c1c(-c2cnc3nccn3c2)[nH]c2ccc(C3CCN(CC(C)(C)O)CC3)cc12 > 7.00

The values you see were collected from patent US11739098B2.
